Tested on: human SMAD7 mRNA
Test: Antisense inhibition of human SMAD7 mRNA expression in Hep3B cells by 5-10-5 MOE gapmers, single concentration, electroporation, RT-PCR (Example 1, Study 1 and 2)
Type: cell-based
Conditions: electroporation, 15,000 nM antisense oligonucleotide (Study 2), 5-10-5 MOE gapmers targeting SEQ ID NO: 1 and 2
Strand notation (5' to 3'): a small letter for the sugar, then the base; units joined by * are phosphorothioate-linked, units joined directly phosphodiester-linked; [ ] holds rarer units or linkages, { } end groups; capitals alone tell only the bases. e = 2'-O-(2-methoxyethyl) (MOE); [5mC] = 5-methylcytosine; d = 2'-deoxy (DNA)
ATTRIBUTE_MEASURED: % inhibition of SMAD7 mRNA expression (%)
// return numeric value only (unit: %, not printed)

Enquiry: Fill: % inhibition of SMAD7 mRNA expression (human SMAD7 mRNA) for this substance 771904 (antisense e[5mC]*e[5mC]*e[5mC]*eA*eA*d[5mC]*d[5mC]*d[5mC]*dA*dT*d[5mC]*dT*d[5mC]*d[5mC]*dA*e[5mC]*e[5mC]*eA*e[5mC]*e[5mC]) [compound 771904]
Return: 0

Enquiry: Fill: % inhibition of SMAD7 mRNA expression (human SMAD7 mRNA) for this substance 771872 (antisense eT*e[5mC]*e[5mC]*e[5mC]*e[5mC]*d[5mC]*dA*d[5mC]*d[5mC]*dG*d[5mC]*dG*d[5mC]*dA*dG*eG*eG*eA*e[5mC]*eA) [compound 771872]
Return: 0

Enquiry: Fill: % inhibition of SMAD7 mRNA expression (human SMAD7 mRNA) for this substance 771952 (antisense eT*e[5mC]*eT*eT*e[5mC]*dT*d[5mC]*dT*dG*d[5mC]*dA*dG*dA*dG*d[5mC]*eA*e[5mC]*eA*eG*eA) [compound 771952]
Return: 0

Enquiry: Fill: % inhibition of SMAD7 mRNA expression (human SMAD7 mRNA) for this substance 771395 (antisense eG*e[5mC]*eG*e[5mC]*eT*d[5mC]*d[5mC]*dG*dG*d[5mC]*dT*dG*d[5mC]*d[5mC]*d[5mC]*e[5mC]*eA*e[5mC]*e[5mC]*e[5mC]) [compound 771395]
Return: 0

Enquiry: Fill: % inhibition of SMAD7 mRNA expression (human SMAD7 mRNA) for this substance 771562 (antisense eA*e[5mC]*eA*e[5mC]*eA*d[5mC]*dA*d[5mC]*dT*d[5mC]*d[5mC]*dT*dG*dA*d[5mC]*eA*eA*eG*eT*eG) [compound 771562]
Return: 30

Enquiry: Fill: % inhibition of SMAD7 mRNA expression (human SMAD7 mRNA) for this substance 771372 (antisense eA*e[5mC]*eA*eA*eA*d[5mC]*d[5mC]*dA*d[5mC]*dA*d[5mC]*dA*dT*dT*d[5mC]*e[5mC]*eA*eA*eA*eA) [compound 771372]
Return: 37

Enquiry: Fill: % inhibition of SMAD7 mRNA expression (human SMAD7 mRNA) for this substance 771467 (antisense e[5mC]*eA*eT*eA*eG*dA*dA*dG*dA*dT*dA*dT*d[5mC]*d[5mC]*dA*eG*eA*eG*eA*eG) [compound 771467]
Return: 11

Enquiry: Fill: % inhibition of SMAD7 mRNA expression (human SMAD7 mRNA) for this substance 771929 (antisense e[5mC]*eT*eT*eT*e[5mC]*d[5mC]*dA*dG*d[5mC]*dA*dA*dA*dA*d[5mC]*d[5mC]*eA*eT*eT*e[5mC]*eG) [compound 771929]
Return: 0

Enquiry: Fill: % inhibition of SMAD7 mRNA expression (human SMAD7 mRNA) for this substance 771505 (antisense e[5mC]*eT*e[5mC]*eA*eG*d[5mC]*dT*d[5mC]*dA*d[5mC]*dG*d[5mC]*dT*d[5mC]*dT*eG*eT*e[5mC]*e[5mC]*e[5mC]) [compound 771505]
Return: 0

Enquiry: Fill: % inhibition of SMAD7 mRNA expression (human SMAD7 mRNA) for this substance 771928 (antisense e[5mC]*e[5mC]*e[5mC]*e[5mC]*eA*dT*dT*dG*d[5mC]*d[5mC]*dA*d[5mC]*dT*dA*d[5mC]*eA*eG*eA*eG*eA) [compound 771928]
Return: 0

Enquiry: Fill: % inhibition of SMAD7 mRNA expression (human SMAD7 mRNA) for this substance 771418 (e[5mC]*e[5mC]*eG*e[5mC]*e[5mC]*dA*d[5mC]*d[5mC]*dG*dG*d[5mC]*d[5mC]*d[5mC]*d[5mC]*dA*eT*eG*e[5mC]*eG*e[5mC]; antisense) [compound 771418]
Return: 60
